Reference source for all entries: the supplement of paper PMC10567573

- ASSAY TEXT: protein stability index of a GFP-peptide fusion (GPS, HEK-293T) (PSI 1-6); higher = more stable;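 note: 24-mer peptide tiles fused after GFP, lentivirally expressed, FACS-sorted into six equal bins by GFP/DsRed ratio, decoded by Illumina sequencing, PSI is the read-weighted mean bin number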
- EXPERIMENTAL CONTEXT: treatment: DMSO; c terminus: a fixed tail appended
MEASUREMENT KIND: protein stability index
Enter the number alone.

Worked cases, protein stability index given:
SEQUENCE RECORD	protein stability index
KKAYDYFQAKKIPIVSSLADPLDT [PDZK1]	3.64
GQEYAAKIINTKKLSARDHQKLER [CAMK2D]	3.96
EALKHPWVCQRSTVASMMHRQETV [CAMK2B]	2.88
FVGAGRMAGAIAQGLIRAGKVEAQ [PYCR3]	2.96
PCCSSSPEEPLNGESYESCCPTSR [FEM1A]	4.28

Prompt: Fill in the blank: the reported protein stability index of HFFALKVMSIPDVIRLKQEQHVHN [PRKX] is ____.
Completion: 2.25

Prompt: Fill in the blank: the reported protein stability index of ILEVLRSSPMVQVDEKGEKVRPSH [LARP4] is ____.
Completion: 3.61

Prompt: Fill in the blank: the reported protein stability index of EKVKACQGQYETIERLRSLSPKIM [TBC1D10A] is ____.
Completion: 3.02

Prompt: Fill in the blank: the reported protein stability index of FLLLYLFTLGTNAIIISTIVLDRA [OR10K2] is ____.
Completion: 3.39

Prompt: Fill in the blank: the reported protein stability index of DSVKVALLETNPYLLALTIIVSIV [CLPTM1] is ____.
Completion: 2.08

Prompt: Fill in the blank: the reported protein stability index of CMAFELATGDYLFEPHSGEDYSRD [SRPK2] is ____.
Completion: 3.87

Prompt: Fill in the blank: the reported protein stability index of AEEKERRRKEYDALKAAKREQEKK [LRRC59] is ____.
Completion: 5.31

Prompt: Fill in the blank: the reported protein stability index of MLKFLAKGEVPKGSCEDEPMDSTM [ATE1] is ____.
Completion: 4.22

Prompt: Fill in the blank: the reported protein stability index of LPNASADSLGGSQEMVQRPQPHRN [TRAF3IP2] is ____.
Completion: 5.25

Prompt: Fill in the blank: the reported protein stability index of QAQQKKAPAKKANSTTTAGRDHFL [BRD3] is ____.
Completion: 4.44

Prompt: Fill in the blank: the reported protein stability index of FTNCYIYNKPTDDIVLMAQALEKI [BRD3] is ____.
Completion: 2.43

----------
- ASSAY TEXT: protein stability index of a GFP-peptide fusion (GPS, HEK-293T) (PSI 1-6); higher = more stable
- EXPERIMENTAL CONTEXT: treatment: DMSO; c terminus: a fixed tail appended
MEASUREMENT KIND: protein stability index
Enter the number alone.

Worked cases, protein stability index given:
SEQUENCE RECORD	protein stability index
RRLEAFEHPNVVRLMDVCATSRTD [CDK4]	3.9
KPPETSVPVVTPTASTAPPVPATA [SNAP91]	5.34
FAKKLVDRTWTLCGTPEYLAPEVI [PRKX]	2.63
LLLILCMQHSFPEPGRLYLDLILA [TMEM192]	3.3

Next up:
Prompt: Fill in the blank: the reported protein stability index of VLPEDRILREELQKQRLREILEQQ [ZNF277] is ____.
Completion: 4.63
